All figures here come from patent US10280163B2.

- measured on: cellular IDO1 in HeLa cells (Homo sapiens)
- Construct: endogenous in cells; host or cells: HeLa cells (American Type Tissue Culture Collection), induced with human recombinant IFN-γ
- measurement notes: HeLa cell-based IDO1 Kyn (kynurenine) production assay
- details: Table 2, 8-substituted imidazo[1,5-a]pyridines, IFN-γ 100 ng/mL, 48 hours
readout name: EC50 (µM)
# output: bare number, implied unit µM

Example cases with answers are listed next.
OC(c1c(C2CC2)ccn2cncc12)C1CCOCC1 (stereo not drawn)
1.68
OC(c1c(C2CC2)ccn2cncc12)C1CC2CCC1C2 (stereo not drawn)
0.116
OC(c1c(C2CC2)ccn2cncc12)C1CC2CC2C1 (stereo not drawn)
0.199
O=C(NC1CC1)c1cccc(C(O)c2c(C3CC3)ccn3cncc23)c1 (stereo not drawn)
8.5

Now for another entry.
Query block: Consider the compound OC1CC2CC1CC2C(O)c1c(C2CC2)ccn2cncc12 (stereo not drawn) . State its measured EC50.
Result block: 6.32

* * *

# maps each entry to its IC50
- measured on: Recombinant IDO1 (Homo sapiens)
- Construct: His tag (N); made in house; host or cells: E. coli
- Sequence (P14902 whole entry): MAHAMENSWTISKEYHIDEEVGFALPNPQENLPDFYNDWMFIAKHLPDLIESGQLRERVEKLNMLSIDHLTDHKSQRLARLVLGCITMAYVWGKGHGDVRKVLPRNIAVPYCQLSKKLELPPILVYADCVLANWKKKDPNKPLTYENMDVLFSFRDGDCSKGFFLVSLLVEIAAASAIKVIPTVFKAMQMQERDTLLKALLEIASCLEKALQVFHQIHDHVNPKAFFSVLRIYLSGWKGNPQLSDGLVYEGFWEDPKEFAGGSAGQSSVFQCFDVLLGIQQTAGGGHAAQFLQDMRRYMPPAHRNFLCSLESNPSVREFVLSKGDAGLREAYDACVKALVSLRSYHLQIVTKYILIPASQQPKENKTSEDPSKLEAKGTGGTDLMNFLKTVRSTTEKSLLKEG
- measurement notes: IDO1 enzymatic assay
- Assay type: biochemical
- details: Table 2, 8-substituted imidazo[1,5-a]pyridines; 50 nM IDO1, 1.3 mM D-tryptophan; read-out: Enzyme IC50 (nM) IDO1
Entry rule: numbers only, all in nM.

CC(=O)N1CCCC(C(O)c2c(C3CC3)ccn3cncc23)C1 (single isomer, unassigned) [Example B133a]
1900

Query block: Look up Recombinant IDO1 (Homo sapiens) data: IC50 of NCC(=O)N1CCCC(C(O)c2c(C3CC3)ccn3cncc23)C1 (centres unmarked) , then report it.
Result block: 13000

Query block: Give IC50; test system Recombinant IDO1 (Homo sapiens); compound CC(C)c1ccn2cncc2c1[C@@H](O)[C@H]1CC[C@@H](O)CC1 (single isomer, unassigned) [Example B121c]
Result block: 110

Query block: Give IC50; test system Recombinant IDO1 (Homo sapiens); compound O=C(c1ccccc1)N1CCCC(C(O)c2c(C3CC3)ccn3cncc23)C1 (centres unmarked)
Result block: 2000

Query block: Look up and report IC50, with Recombinant IDO1 (Homo sapiens) as system, for Cc1cc(C(O)C2CCCCC2)c2cncn2c1 (centres unmarked)
Result block: 170

Query block: Give reported IC50 for OC(CC1CCCCC1)c1c([C@H]2C[C@H]2F)ccn2cncc12 (mixture of isomers) [Example B127b] (Recombinant IDO1 (Homo sapiens))
Result block: 93

Query block: State the measured IC50 (Recombinant IDO1 (Homo sapiens)) of OC1CC2CC1CC2C(O)c1c(C2CC2)ccn2cncc12 (centres unmarked)
Result block: 1300

Query block: Write down the reported IC50 (system: Recombinant IDO1 (Homo sapiens)) of OC(c1c(C2CC2)ccn2cncc12)[C@H]1CC[C@@H](O)CC1 (single isomer, unassigned) [Example B119c]
Result block: 7700

* * *

- measured on: Recombinant TDO (Homo sapiens, UniProt P48775)
- Construct: His tag (C); made in house; host or cells: E. coli
- Sequence (P48775 whole entry): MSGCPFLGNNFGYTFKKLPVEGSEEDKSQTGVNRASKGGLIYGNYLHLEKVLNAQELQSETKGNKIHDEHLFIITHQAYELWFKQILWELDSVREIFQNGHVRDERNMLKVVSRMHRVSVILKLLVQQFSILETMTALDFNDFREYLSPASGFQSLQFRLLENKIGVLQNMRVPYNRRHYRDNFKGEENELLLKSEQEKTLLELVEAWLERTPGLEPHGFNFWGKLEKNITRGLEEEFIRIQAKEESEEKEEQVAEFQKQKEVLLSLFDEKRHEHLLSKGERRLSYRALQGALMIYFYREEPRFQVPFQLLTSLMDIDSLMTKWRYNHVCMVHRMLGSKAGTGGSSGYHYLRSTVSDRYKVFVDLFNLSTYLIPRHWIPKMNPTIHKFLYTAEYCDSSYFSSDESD
- measurement notes: TDO enzymatic assay
- Assay type: biochemical
- details: Table 1, 5-substituted imidazo[1,5-a]pyridines; 100 nM TDO, 0.5 mM L-tryptophan; read-out: Enzyme IC50 (nM) TDO
This section presents compounds with their documented IC50 values.

Some compounds with known IC50 results, for comparison:
O=C(NC1CCCC(C(O)c2cc(Cl)cc3cncn23)C1)c1cccc(Cl)c1 (centres unmarked)
1600 nM
OC(c1cc(C2CC2)cc2cncn12)C1CCCCC1 (centres unmarked) [Example A108, 2,2,2-trifluoroacetate]
150 nM
O[C@@H](c1cc(Cl)cc2cncn12)C1CCCCC1 [Example A101b]
230 nM

Query block: For the compound OC(c1c(I)ccc2cncn12)C1CCCCC1 (single isomer, unassigned) [Example A125a] , report IC50.
Result block: 4500 nM

Query block: Note IC50 for the compound shown: CC1CCC(C(O)c2cc(Cl)cc3cncn23)CC1 (centres unmarked)
Result block: 270 nM

* * *

- measured on: cellular IDO1 in HeLa cells (Homo sapiens)
- Construct: endogenous in cells; host or cells: HeLa cells (American Type Tissue Culture Collection), induced with human recombinant IFN-γ
- measurement notes: HeLa cell-based IDO1 Kyn (kynurenine) production assay
- details: Table 2, 8-substituted imidazo[1,5-a]pyridines, IFN-γ 100 ng/mL, 48 hours
pEC50: −log10 of the molar value.
Attribute: pEC50

OC(CCc1cccn2cncc12)C1CCCCC1 (stereo not drawn)
< 5.00
Cc1ccn2cncc2c1C(O)C1CCCCC1 (single isomer, unassigned) [Example B102b]
< 5.00
Cc1cc(C(O)C2CCCCC2)c2cncn2c1 (stereo not drawn)
< 5.00
OC(c1c([C@H]2C[C@@H]2F)ccn2cncc12)C1CCCCC1 (mixture of isomers) [Example B128a]
6.74
OC(c1c(C2CC2)ccn2cncc12)[C@H]1CC[C@@H](O)CC1 (single isomer, unassigned) [Example B119d]
5.52

Query block: // fetch pEC50; item: OC(CC1CCCCC1)c1cc(Cl)cn2cncc12 (stereo not drawn) ; system: cellular IDO1 in HeLa cells (Homo sapiens)
Result block: < 5.00

Query block: For cellular IDO1 in HeLa cells (Homo sapiens), give pEC50 of the listed compound: OC(c1c(C2CC2)ccn2cncc12)C1CCC(c2ccccc2)CC1 (single isomer, unassigned) [Example B143a]
Result block: 7.10

Query block: Given O=C(OCc1ccccc1)N1CCCC(C(O)c2c(C3CC3)ccn3cncc23)C1 (stereo not drawn) , report its pEC50 on cellular IDO1 in HeLa cells (Homo sapiens).
Result block: < 5.00

Query block: Please look at OC(CCC1CCCCC1)c1cccn2cncc12 (stereo not drawn) and tell me its recorded pEC50 on cellular IDO1 in HeLa cells (Homo sapiens).
Result block: < 5.00

* * *

- measured on: Recombinant IDO1 (Homo sapiens)
- Construct: His tag (N); made in house; host or cells: E. coli
- measurement notes: IDO1 enzymatic assay
- Type: biochemical
- details: Table 2, 8-substituted imidazo[1,5-a]pyridines; 50 nM IDO1, 1.3 mM D-tryptophan; read-out: Enzyme IC50 (nM) IDO1
readout name: log10 IC50 (log10 of the value in nM)
Remember, log10 of IC50, in nM.

OC(c1c([C@H]2C[C@@H]2F)ccn2cncc12)C1CCCCC1 (single isomer, unassigned) [Example B128c]
5.04

Query block: Please give the documented log10 IC50 of OC(c1c(C2CC2)ccn2cncc12)C1CCC2CC2C1 (centres unmarked)
Result block: 1.85

Query block: Determine from records and report log10 IC50 for OCC1(C(O)c2c(C3CC3)ccn3cncc23)CCCCC1 (centres unmarked)
Result block: 2.88

Query block: Identify measured log10 IC50 corresponding to OC(CC1CCCCC1)c1c(C2CC2)ccn2cncc12 (centres unmarked) [Example B110]
Result block: 1.72

Query block: Report log10 IC50, nothing else, for this molecule: OC(c1c([C@H]2C[C@H]2F)ccn2cncc12)C1CCCCC1 (mixture of isomers) [Example B126b]
Result block: 2.53

Query block: Please list log10 IC50 recorded for the molecule OC(c1c(C2CC2)ccn2cncc12)C1CCCCC1 (centres unmarked) [Example B107]
Result block: 1.68

Query block: Name the recorded log10 IC50 of the molecule listed here: NS(=O)(=O)N1CCCC(C(O)c2c(C3CC3)ccn3cncc23)C1 (single isomer, unassigned) [Example B135b]
Result block: 2.98

Query block: Return log10 IC50 (reported value) for this molecule: O=C(OCc1ccccc1)N1CCCC(C(O)c2c(C3CC3)ccn3cncc23)C1 (centres unmarked)
Result block: 2.49

* * *

- measured on: cellular IDO1 in HeLa cells (Homo sapiens, UniProt P14902)
- Construct: endogenous in cells; host or cells: HeLa cells (American Type Tissue Culture Collection), induced with human recombinant IFN-γ
- measurement notes: HeLa cell-based IDO1 Kyn (kynurenine) production assay
- details: Table 1, 5-substituted imidazo[1,5-a]pyridines, IFN-γ 100 ng/mL, 48 hours
- Procedure: HeLa Cell-Based IDO1 Kyn (Kynurenine) Production Assay: The inhibitory activity of IDO1 inhibitors is determined by using a colorimetric reaction to measure Kyn generated from L-Trp (L-Tryptophon) oxidation by cellular IDO1 in HeLa cells after induction of IDO1 by IFN-γ. Hela cells were obtained from the American Type Tissue Culture Collection and recovered in 10% FBS-containing phenol red-free DMEM medium supplemented with 0.4 mM L-Trp. […]
Property: pEC50; scope: individual compounds
Scale note: pEC50 = -log10(concentration in M).

OC(CC1CCCCC1)c1c(Cl)c(F)cc2cncn12 (stereo not shown) [Example A152]
6.69

For the next question, use this compound.
Query block: Give the measured pEC50 for OC(c1c(Br)ccc2cncn12)C1CCCCC1 (stereo not shown) [Example A118]
Result block: 6.38
